# tested on: T1, 4H797-bN
# T1 chain: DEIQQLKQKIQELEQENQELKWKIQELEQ
# measurement protocol: two-hybrid library CCNG1;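 note: natural log of median RNA to DNA barcode read ratio; higher means stronger binding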
measured parameter: interaction score

# binder, measured parameter, obs value
records = [
    ("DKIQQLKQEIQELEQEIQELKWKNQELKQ [4H2576-bN]", "interaction score", -2.07),
    ("DEIQQLKQEIQELEQKNQELKWKNQELEQ [4H575-bN]", "interaction score", -1.51),
    ("DEIQQLKQKIQELEQEIQELKWENQELKQ [4H780-bN]", "interaction score", -0.0265),
    ("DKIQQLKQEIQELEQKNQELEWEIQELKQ [4H2610-bN]", "interaction score", -1.16),
    ("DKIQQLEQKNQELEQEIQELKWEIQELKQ [4H2442-bN]", "interaction score", -0.491),
    ("DEIQQLKQEIQELKQENQELKWKNQELEQ [4H607-bN]", "interaction score", -0.52),
    ("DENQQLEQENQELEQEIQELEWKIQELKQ [4H1158-bN]", "interaction score", -0.804),
    ("DEIQQLEQKIQELKQENQELKWEIQELKQ [4H346-bN]", "interaction score", -0.125),
    ("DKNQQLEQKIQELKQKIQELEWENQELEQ [4H3427-bN]", "interaction score", -0.295),
]

a. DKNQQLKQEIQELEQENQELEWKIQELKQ [4H3606-bN]
b. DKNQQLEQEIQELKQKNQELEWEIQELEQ [4H3185-bN]
c. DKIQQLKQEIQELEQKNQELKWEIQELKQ [4H2618-bN]
d. DEIQQLKQENQELEQKIQELKWKNQELEQ [4H687-bN]
e. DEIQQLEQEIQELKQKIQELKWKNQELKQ [4H112-bN]
Ask: List from greatest to least interaction score. Order the labels as requested and give them as your answer.
Result: d, c, a, b, e
(d: 0.169, c: -0.249, a: -0.386, b: -0.638, e: -1.01)
